Experiment: qHTS Screen of the MIPE 4.0 Collection Against Ewings Sarcoma (TC71) (AID 1259253); also: nearly all actives have a fitted effect of over 40% in size; also: potency is read from the fitted curve at half-maximal effect
Conditions: TC71 Ewing sarcoma viability, CellTiter-Glo, 48 h; series mostly up to 45.8 µM
Inconclusive results are not listed. Active and inactive are the calls of the source. Calls follow the shape of the dose curve; as a rule, active = well fitted inhibition curve with a large enough effect; inconclusive = small, poorly fitted or top-dose-only effect; inactive = no such curve, though single readings can be large or run the other way.
Quantity: Potency

Examples with answers:
CC(C)[C@H]1C(=O)N[C@H](CO)Cc2c[nH]c3cccc(c23)N1C :: inactive
C[C@H]([C@H](O)CCC(C)(C)O)[C@H]1CC[C@@]2(O)C3=CC(=O)[C@@H]4C[C@@H](O)[C@@H](O)C[C@]4(C)[C@@H]3CC[C@]12C :: inactive
Clc1ccccc1C(c1ccccc1)(c1ccccc1)n1cccn1 :: 1050 nM (active)
c1ccc2c(CN3CCNCC3)cccc2c1 :: inactive
COCC1(CO)C(=O)C2CCN1CC2 (configuration not stated) :: 2350 nM (active)

# map each compound to its Potency
1. C#C[C@]1(O)C=C[C@@H]2[C@@H]3CCC4=CC(=O)CC[C@@H]4[C@H]3CC[C@@]21CC
2. CC1=C(O)C(=O)C=C2C1=CC=C1[C@@]2(C)CC[C@@]2(C)[C@@H]3C[C@](C)(C(=O)O)CC[C@]3(C)CC[C@]12C
3. C[C@H]1CCCC=CC2C[C@H](O)C[C@@H]2[C@H](O)C=CC(=O)O1 (some centres not stated)
4. C[C@]12CC[C@H](O)CC1=CC[C@H]1[C@H]3CCC(=O)[C@@]3(C)CC[C@@H]12
5. O=c1[nH]c2ccc(Cl)cc2c(N[C@@H]2CN3CCC2CC3)c1-c1nc2ccccc2[nH]1
6. CSCC[C@@H](NC(=O)[C@@H](Cc1ccccc1)NC(=O)CNC(=O)CNC(=O)[C@@H](N)Cc1ccc(O)cc1)C(=O)O
7. CC(C)(C)[C@]1(O)C[C@@H]2OC(=O)C[C@@]23C(=O)O[C@@H]2OC(=O)[C@H](O)C213 (some centres not stated)

["inactive", "1180 nM (active)", "inactive", "18700 nM (active)", "41.8 nM (active)", "inactive", "20900 nM (active)"]

# map each compound to its Potency
1. CC(C)[C@]12O[C@@H]1[C@@H]1O[C@]13[C@]1(O[C@H]1C[C@@H]1C4=C(CC[C@@]13C)C(=O)OC4)[C@H]2O
2. Cc1c(C(=O)c2cccc3ccccc23)c2cccc3c2n1[C@H](CN1CCOCC1)CO3
3. COc1cc([C@@H]2c3cc4c(cc3[C@@H](O)C3COC(=O)C32)OCO4)cc(OC)c1O (some centres not stated)

1: inactive; 2: 26400 nM (active); 3: 41.8 nM (active)

# map each compound to its Potency
1. CC=C(C)C(=O)O[C@H]1C(C)=C2[C@@H]3OC(=O)[C@@](C)(O)[C@@]3(O)[C@@H](OC(=O)CCC)C[C@](C)(OC(C)=O)[C@@H]2[C@@H]1OC(=O)CCCCCCC
2. C[C@@H]1CC[C@H]2[C@@H](C)C(=O)O[C@@H]3O[C@@]4(C)CC[C@H]1[C@]32OO4

52.6 nM (active)
3720 nM (active)
